Experiment: self-splicing fitness, log relative to wild type (ln ratio); higher = more splicing; Tetrahymena group I intron in knt gene, E. coli kanamycin selection, DiMSum; sequences stand for … in CUCUCU…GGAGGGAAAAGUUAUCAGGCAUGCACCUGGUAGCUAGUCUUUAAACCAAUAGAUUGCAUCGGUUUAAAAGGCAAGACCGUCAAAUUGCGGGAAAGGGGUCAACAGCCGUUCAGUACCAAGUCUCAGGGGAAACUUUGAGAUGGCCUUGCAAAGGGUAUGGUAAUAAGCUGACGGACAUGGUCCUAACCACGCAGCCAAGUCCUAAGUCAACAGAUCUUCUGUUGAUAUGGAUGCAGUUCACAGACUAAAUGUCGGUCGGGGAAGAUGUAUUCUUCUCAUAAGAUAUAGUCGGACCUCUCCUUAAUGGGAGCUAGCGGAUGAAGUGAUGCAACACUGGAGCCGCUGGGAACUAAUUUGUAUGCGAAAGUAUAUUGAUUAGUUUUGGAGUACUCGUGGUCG;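 note: selection with 25 µg/mL kanamycin versus none on LB agar overnight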
Details: 30 °C
The reader will find reported self-splicing fitness (ln) values listed item by item below.
// return a plain number; no unit text

Worked cases, answers included:
POLYMER_SEQUENCE: GCUUAGCAAUAUUACGUAUU
self-splicing fitness (ln): -0.48
--
POLYMER_SEQUENCE: GAUGAGCAAUAUUACGCUCC
self-splicing fitness (ln): -3
--
POLYMER_SEQUENCE: ACGCAGCAAUAUUACGUCCU
self-splicing fitness (ln): -0.15
--
POLYMER_SEQUENCE: ACUCAGCAAUAUUACGUAAG
self-splicing fitness (ln): -0.973
--
POLYMER_SEQUENCE: CAUCAGCAAUAUUACGUAUG
self-splicing fitness (ln): -2.16
--
POLYMER_SEQUENCE: CCAGAGCAAUAUUACGCGAA
self-splicing fitness (ln): -4.06
--
POLYMER_SEQUENCE: CUAGAGCAAUAUUACGGUUA
self-splicing fitness (ln): -3.66
--
POLYMER_SEQUENCE: AAGCAGCAAUAUUACGGAAA
self-splicing fitness (ln): -2.74

Task: Find the recorded self-splicing fitness (ln) belonging to "UCAAAGCAAUAUUACGGUCG" and report it.
Output: -0.405

Task: Please give the result for "ACGGAGCAAUAUUACGAUCG" too.
Output: -0.961

Task: Now this one: "ACUGAGCAAUAUUACGUCCC"
Output: -3.06

Task: And for "CAGUAGCAAUAUUACGUCCG" ?
Output: -0.245

Task: Try this sequence too: "UCUCAGCAAUAUUACGCAUC"
Output: -3.51

Task: Same thing, different sequence: "UGAUAGCAAUAUUACGCGUU"
Output: -2.9

Task: "CACGAGCAAUAUUACGUGGC" ?
Output: -4.09

Task: Also need "GUUUAGCAAUAUUACGGUUG" , thanks.
Output: -3.13

Task: Please do the same for "AAGGAGCAAUAUUACGGGGA" as well.
Output: -3.91

Task: Input "ACCGAGCAAUAUUACGACAG"
Output: -2.88

Task: Would you kindly repeat that for "AUCGAGCAAUAUUACGGGGG" ?
Output: -3.4

Task: Record: "UUAAAGCAAUAUUACGUACU"
Output: -0.208
